Assay: recombinant UMI read abundance after kanamycin selection (control-corrected) (log10(CPM+1)); higher = more efficient recombination; extreme values may be limits of the assay; sequences stand for … in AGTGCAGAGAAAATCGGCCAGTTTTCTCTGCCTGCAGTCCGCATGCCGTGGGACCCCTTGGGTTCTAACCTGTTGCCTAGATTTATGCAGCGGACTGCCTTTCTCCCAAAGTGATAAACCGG…AGGTTGGTTTCACT; site = the 11-nt donor;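 also: IS621 bridge recombinase in Escherichia coli cells against a fixed T5 target plasmid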
measured-endpoint: recombinant UMI read abundance (log10)
// print number alone

The reported value for CTTCCCTCATGGACCGGTTTTCCCGGTAATCCGTATTTGTA (site CTTCCCTCTTA) in terms of recombinant UMI read abundance (log10) is 2.49

// ATTGTTCCATGGACCGGTTTTCCCGGTAATCCGTATTTGGT (site CTTGTTCCTAC) : recombinant UMI read abundance (log10) value = 0

Measured recombinant UMI read abundance (log10), TTTCAGACATGGACCGGTTTTCCCGGTAATCCGTATTTGTT (site TTTCAGACTAA) : 0.004

Note to self: recombinant UMI read abundance (log10) recorded for AGCGTTACATGGACCGGTTTTCCCGGTAATCCGTATTTGTA (site AGCGTTACTTA) was 0.651

The sequence listed as AACCAAACATGGACCGGTTTTCCCGGTAATCCGTATTTGAA (site AACCAAACTTT) has a reported recombinant UMI read abundance (log10) of 1.31

Entry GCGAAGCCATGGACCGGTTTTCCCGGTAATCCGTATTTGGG (site GCGAGGCCTCC) — recorded recombinant UMI read abundance (log10) = 0.0307

Data point: GGCAATCCATGGACCGGTTTTCCCGGTAATCCGTATTTGAC (site GGCAATCCTCT) ; recombinant UMI read abundance (log10) = 0.00258

Measured recombinant UMI read abundance (log10) of ACGTGGCCATGGACCGGTTTTCCCGGTAATCCGTATTTGAG (site ACGTGGCCTCT) : 0.0124

The value of recombinant UMI read abundance (log10) measured for the sequence GTATGCACATGGACCGGTTTTCCCGGTAATCCGTATTTGTT (site GTATGCACTGA) turned out to be 1.66

The reported recombinant UMI read abundance (log10) of the sequence CGGTAGACATGGACCGGTTTTCCCGGTAATCCGTATTTGCA (site AGGAAGACTTG) was 0

CGAAGGACATGGACCGGTTTTCCCGGTAATCCGTATTTGGT (site CGAAGGACTAC) has a reported recombinant UMI read abundance (log10) of 1.65

# sequence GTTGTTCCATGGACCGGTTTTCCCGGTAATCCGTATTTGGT (site GTTGTTCCTCC) ; its recombinant UMI read abundance (log10) = 0.0221

The sequence AAATCAGCATGGACCGGTTTTCCCGGTAATCCGTATTTGTT (site AAATCAGCTAA) showed recombinant UMI read abundance (log10) equal to 0.425

Memo: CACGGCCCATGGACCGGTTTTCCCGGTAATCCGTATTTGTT (site CACGTCCCTAA) , reported recombinant UMI read abundance (log10): 0.0115

The reported recombinant UMI read abundance (log10) of the sequence CGTTGAACATGGACCGGTTTTCCCGGTAATCCGTATTTGTT (site CGTCGAACTAA) was 0.0175

The measured recombinant UMI read abundance (log10) associated with CCGTTAACATGGACCGGTTTTCCCGGTAATCCGTATTTGCT (site CCGTTGACTAG) reads 0.00307

The recorded recombinant UMI read abundance (log10) for AGTACACCATGGACCGGTTTTCCCGGTAATCCGTATTTGAC (site AGTACACCTGT) is 0

For reference, reported recombinant UMI read abundance (log10) for TTCGACTCATGGACCGGTTTTCCCGGTAATCCGTATTTGAC (site TTCGACTCTGT) stands at 1.03
